- assayText: cAMP Responsive Elements (CRE) small molecule antagonists, cell-based qHTS assay: qHTS cell viability counter screen (AID 2060913); also: nearly all actives have a fitted effect of over 40% in size
- testSettings: CRE-bla HEK293T viability, CellTiter-Glo luminescence, 5 h; series mostly up to 92.4 µM
Inconclusive results are not listed. Activity calls are given as the source filed them. Calls follow the shape of the dose curve; as a rule, active = well fitted cell-killing curve with a large enough effect in the repeat runs; inconclusive = weak or mixed curves, or effect the other way; inactive = flat fitted curve, though single readings scatter.
Respond with a class label; see TRUE = active, FALSE = inactive

Past entries and their recorded results:
In this assay, the call recorded for `Nc1cnn(-c2ccccc2)c(=O)c1Cl` was what?
FALSE

Called result for `Clc1ccc(CO/N=C(\Cn2ccnc2)c2ccc(Cl)cc2Cl)c(Cl)c1`
FALSE

***
Which result was noted for this molecule in the test: `O=C(O)c1cc(I)cc(I)c1I`
FALSE

Assay outcome for N#CCCC(Br)(C#N)CBr (stereo not drawn) : what was it?
FALSE

Which outcome was entered for the molecule `C=CCc1ccc(OC)cc1` in this test?
FALSE

Each molecule tested received a call. Report the one for `NCCc1cc(O)c(O)cc1O` .
FALSE

Just curious, what result did `CC(C)(N)Cc1ccccc1Cl` get here?
FALSE

Please let me know the test result on file for `CCOS(=O)(=O)OCC` .
FALSE

Fill in: this test's call for `CCN[C@@H](C)Cc1cccc(C(F)(F)F)c1` is ___
FALSE

* * *

- assayText: cAMP Responsive Elements (CRE) small molecule antagonists, cell-based qHTS assay: qHTS cell viability counter screen (AID 2060913); also: nearly all actives have a fitted effect of over 40% in size
- testSettings: CRE-bla HEK293T viability, CellTiter-Glo luminescence, 5 h; series mostly up to 92.4 µM
Inconclusive results are not listed. Active and inactive are the calls of the source. Calls follow the shape of the dose curve; as a rule, active = well fitted cell-killing curve with a large enough effect in the repeat runs; inconclusive = weak or mixed curves, or effect the other way; inactive = flat fitted curve, though single readings scatter.
readout: outcome

The recorded outcome for OCC(O)CCl (centres undefined) is inactive

Note to self: outcome recorded for `COc1ccccc1OC` was inactive

In plain terms, `CC(c1ccc(O)cc1)(c1ccc(O)cc1)c1ccc(O)cc1` has a documented outcome of inactive

Briefly, outcome measured for `CC(C)(C)OOC(=O)c1ccccc1` : inactive

According to the records, this compound `O=c1n(Cl)c(=O)n(Cl)c(=O)n1Cl` displays outcome of inactive

Others:
outcome reported for this compound CC(C#N)CCC#N (centres undefined) : inactive

Looking up `CC(C)OS(C)(=O)=O` , I found its outcome recorded as inactive

* * *

- assayText: cAMP Responsive Elements (CRE) small molecule antagonists, cell-based qHTS assay: qHTS cell viability counter screen (AID 2060913); also: nearly all actives have a fitted effect of over 40% in size
- testSettings: CRE-bla HEK293T viability, CellTiter-Glo luminescence, 5 h; series mostly up to 92.4 µM
Inconclusive results are not listed. The source made the active and inactive calls. Calls come from the whole dose curve; as a rule, active = well fitted cell-killing curve with a large enough effect in the repeat runs; inconclusive = weak or mixed curves, or effect the other way; inactive = flat fitted curve, though single readings scatter.
// one of true (1) = active, false (0) = inactive, no free text

Example cases with answers are listed next.
What was the test verdict on `COC(=O)c1sccc1S(=O)(=O)NC(=O)Nc1nc(C)nc(OC)n1` ?
false (0)

Record lookup: outcome of this test for `CC(C)N(C(=O)COc1nnc(C(F)(F)F)s1)c1ccc(F)cc1` ?
false (0)

Test call, this compound: `CCOC(=O)COc1ccc(Cl)cc1Cl`
false (0)

Assay outcome for `COC(=O)c1ccccc1CS(=O)(=O)NC(=O)Nc1nc(OC)cc(OC)n1` : what was it?
false (0)

Name the outcome recorded for `Cc1nn(-c2cc(NS(C)(=O)=O)c(Cl)cc2Cl)c(=O)n1C(F)F` in the assay.
false (0)

I'd appreciate the recorded outcome for `C=CC(C)=O` from this test.
false (0)

Per the assay record, what outcome was assigned to `CS(=O)(=O)NC(=O)c1cc(Oc2ccc(C(F)(F)F)cc2Cl)ccc1[N+](=O)[O-]` ?
false (0)

Hey, what did the test say about `O=[N+]([O-])/N=C1\NCCN1Cc1ccc(Cl)nc1` ?
false (0)

# outcome recorded in this test, key = `CC(=O)O.CC(=O)O.CC(=O)O.CC(=O)O.CC(=O)O.CC(=O)O.CC(=O)O.O.O.[Cr].[Cr].[Cr]`
false (0)

What call does the record list for `Cc1ccc([N+](=O)[O-])[c]2c1[O][Hg]2` ?
true (1)

Next:
Please state the recorded outcome for this compound: `Cc1cccc(N)c1N`
false (0)
